- target_or_test_system: OR5A2_variant 1 (Homo sapiens)
- Construct: expressed in transfected cells; host or cells: HEK293T-RTP1A1/RTP2
- assay_summary: Luciferase reporter concentration-response analysis on OR5A2_variant 1
- Type: cell-based
- experimental_parameters: CRE-luciferase; semi-logarithmic serial dilutions; empty vector pEFIBRHO as control
assay_endpoint: activation of OR5A2 (OR5A2_variant 1), concentration-response

CCC1(O)C2(C)CCC(C2)C1(C)C (centres unmarked) [2 ethyl-fenchol] = stimulated neither
CC(=O)/C=C/C1=C(C)CCCC1(C)C [Beta-ionone] = stimulated neither

---

- target_or_test_system: OR5A2_variant 1 (Homo sapiens, UniProt Q8NGI9)
- Construct: expressed in transfected cells; host or cells: HEK293T-RTP1A1/RTP2
- assay_summary: Luciferase reporter concentration-response analysis on OR5A2_variant 1
- Assay type: cell-based
- experimental_parameters: concentration-response analysis, luciferase reporter; values given as negative (log) numbers; read-out: calculated EC50, OR5A2 (converted)
assay_endpoint: EC50 (µM)
State just the number; it will be interpreted in µM.

O=C1CCCCCC/C=C\CCCCCCC1 = 3.98

Which EC50 is listed for COc1c(C(C)(C)C)cc([N+](=O)[O-])c(C)c1[N+](=O)[O-] ? 8.71

Query CC(=O)c1cc2c(cc1C)C(C)(C)C(C)C2(C)C (stereo not drawn) [Phantolide] next 4.57
